# Test system: HCC38 cells
# procedure-text: Resazurin-based cell viability assay, monotherapy drug screen
# Parameters: species or system human
# cond: HCC38; drug efficacy at highest tested dose (<0 cytotoxic, 0 cytostatic, >0 partial growth inhibition)
Residues, ends and D or L forms follow the SMILES beside them. *: point of attachment. Cbz = O=C(OCc1ccccc1)*
Below is a list of entries, each paired with its recorded GRmax value.

>  <compound>
N.N.[Cl][Pt][Cl] [Cisplatin]

>  <GRmax>
−0.67

$$$$
>  <compound>
CC(=O)O[C@H]1C(=O)[C@@]2(C)[C@H]([C@H](OC(=O)c3ccccc3)[C@]3(O)C[C@H](OC(=O)[C@H](O)[C@@H](NC(=O)c4ccccc4)c4ccccc4)C(C)=C1C3(C)C)[C@]1(OC(C)=O)CO[C@@H]1C[C@@H]2O [Paclitaxel]

>  <GRmax>
−0.50

$$$$
>  <compound>
COC[C@H](NC(=O)c1cnc(C)s1)C(=O)N[C@@H](COC)C(=O)N[C@@H](Cc1ccccc1)C(=O)[C@@]1(C)CO1 [Oprozomib]

>  <GRmax>
−0.98

$$$$
>  <compound>
CC(C)C[C@@H](C=O)NC(=O)[C@H](CC(C)C)NC(=O)[C@H](CC(C)C)NC(=O)OCc1ccccc1 [MG 132, MG-132] (Cbz-Leu-Leu-Leu-aldehyde)

>  <GRmax>
−0.98

$$$$
>  <compound>
[NH2][Pt]1([NH2])[O]CC(=O)[O]1 [Nedaplatin]

>  <GRmax>
−0.58

$$$$
>  <compound>
COc1cccc2c1C(=O)c1c(O)c3c(c(O)c1C2=O)C[C@@](O)(C(=O)CO)C[C@@H]3O[C@H]1C[C@H](N)[C@H](O)[C@H](C)O1 [Doxorubicin]

>  <GRmax>
0.01

$$$$

* * *

# Test system: MCF-10A cells
# procedure-text: Resazurin-based cell viability assay, monotherapy drug screen
# Design: species or system human
# cond: growth rate inhibition concentration at GR(c) = 0.5, 24 h, read-out: GR50 (the source's name)
pIC50: −log10 of the molar value.
readout-kind: pIC50

>  <compound>
[NH2][Pt]1([NH2])[O]CC(=O)[O]1

>  <readout-kind>
pIC50

>  <recorded-number>
7.13

$$$$
>  <compound>
N.N.[Cl][Pt][Cl] [Cisplatin]

>  <readout-kind>
pIC50

>  <recorded-number>
7.55

$$$$
>  <compound>
N.N.O=C([O-])C1(C(=O)[O-])CCC1.[Pt+2]

>  <readout-kind>
pIC50

>  <recorded-number>
6.12

$$$$
>  <compound>
CC[C@H](C)[C@H](NC(=O)[C@H]([C@@H](C)CC)N(C)C(C)=O)C(=O)N[C@H](C(=O)N[C@@H](CC(C)C)C(=O)[C@@]1(C)CO1)[C@@H](C)O

>  <readout-kind>
pIC50

>  <recorded-number>
7.02

$$$$

* * *

# Tested on: HCC38 cells
# procedure-text: Resazurin-based cell viability assay, monotherapy drug screen
# Parameters: species or system human
# cond: HCC38; area under the dose response curve, 24 h
Residues, ends and D or L forms follow the SMILES beside them. *: point of attachment. Cbz = O=C(OCc1ccccc1)*
Below is a list of entries, each paired with its recorded AUC value.

>  <compound>
CC1=C(O)C(=O)C=C2C1=CC=C1[C@@]2(C)CC[C@@]2(C)[C@@H]3C[C@](C)(C(=O)O)CC[C@]3(C)CC[C@]12C [Celastrol]

>  <AUC>
0.79

$$$$
>  <compound>
CC(C)C[C@H](NC(=O)[C@@H](NC(=O)c1cccc(-c2ccccc2)n1)[C@@H](C)O)B(O)O [Delanzomib]

>  <AUC>
0.42

$$$$
>  <compound>
[NH2][Pt]1([NH2])[O]CC(=O)[O]1 [Nedaplatin]

>  <AUC>
0.62

$$$$
>  <compound>
CC(C)C[C@H](NC(=O)[C@H](Cc1ccccc1)NC(=O)c1cnccn1)B(O)O [Bortezomib]

>  <AUC>
0.40

$$$$
>  <compound>
N.N.[Cl][Pt][Cl] [Cisplatin]

>  <AUC>
0.45

$$$$
>  <compound>
CC(=O)O[C@H]1C(=O)[C@@]2(C)[C@H]([C@H](OC(=O)c3ccccc3)[C@]3(O)C[C@H](OC(=O)[C@H](O)[C@@H](NC(=O)c4ccccc4)c4ccccc4)C(C)=C1C3(C)C)[C@]1(OC(C)=O)CO[C@@H]1C[C@@H]2O [Paclitaxel]

>  <AUC>
0.81

$$$$
>  <compound>
CC[C@H](C)[C@H](NC(=O)[C@H]([C@@H](C)CC)N(C)C(C)=O)C(=O)N[C@H](C(=O)N[C@@H](CC(C)C)C(=O)[C@@]1(C)CO1)[C@@H](C)O [Epoxomicin]

>  <AUC>
0.47

$$$$
>  <compound>
CC(C)C[C@H](NC(=O)[C@H](CCc1ccccc1)NC(=O)CN1CCOCC1)C(=O)N[C@@H](Cc1ccccc1)C(=O)N[C@@H](CC(C)C)C(=O)[C@@]1(C)CO1 [Carfilzomib]

>  <AUC>
0.71

$$$$
>  <compound>
CC(C)C[C@H](NC(=O)CNC(=O)c1cc(Cl)ccc1Cl)B(O)O [MLN 2238, MLN-2238]

>  <AUC>
0.59

$$$$
>  <compound>
CC(C)C[C@@H](C=O)NC(=O)[C@H](CC(C)C)NC(=O)[C@H](CC(C)C)NC(=O)OCc1ccccc1 [MG 132, MG-132] (Cbz-Leu-Leu-Leu-aldehyde)

>  <AUC>
0.71

$$$$
>  <compound>
CC(=O)O[C@@]12CO[C@@H]1C[C@H](O)[C@@]1(C)C(=O)[C@H](O)C3=C(C)[C@@H](OC(=O)[C@H](O)[C@@H](NC(=O)OC(C)(C)C)c4ccccc4)C[C@@](O)([C@@H](OC(=O)c4ccccc4)[C@H]21)C3(C)C [Docetaxel]

>  <AUC>
0.78

$$$$
